Assayed target: T1, hFc-tagged human 4-1BB extracellular domain protein (4-1BB-hFc) (human, UniProt Q07011 24-186, limits assumed)
T1 construct: also called immunogen A; 4-1BB^ECD-hFc; not shown: human IgG Fc fragment (hFc) of the pCpC vector
Assay notes: ELISA, coated human 4-1BB-hFc; Ab 0.08 ug/ml
Below, each of the binders is paired with its reported OD450 nm value.
Measure: OD450 nm

Binder: 11H10C9 (antibody, V domains shown) VH: QVQLVESGGGVVQPGRSLRLSCAASGFTFSSYAMHWVRQAPGKGLEWVAIIWYDGSNQYYADSVKGRFTISRDNSMNTLYLQMNSLRAEDTAVYYCARVEQWLVSYFDFWGQGTLVTVSS VL: EIVMTQSPATLSVSPGERATLSCRASQSVSSNLAWYQQKPGQVPRLLIYGASTRATGIPARFSGSGSGTEFTLTISSLQSEDFAVYYCQQYNNWPTFGGGTKVEIK
Measure: OD450 nm
Result value: 3.27 OD450 nm

Binder: 15G10D4 (antibody, V domains shown) VH: QVQLVESGGGVVQPGRSLRLSCAASGFSFSSYAMHWVRQAPGKGLEWVAIIWYDGSNQYYADSVKGRFTISRDNSKNTLYLQMNSLRAEDTAVYYCARVKQWLVSYFDYWGQGTLVTVSS VL: EIVMTQSPATLSVSPGERATLSCRASQSVSSNLAWYQQKPGQVPRLLIYGASTRATGIPARFSGSGSGTEFSLIISSLQSEDFAVYYCQQYNNWPTFGGGTKVEIK
Measure: OD450 nm
Result value: 3.35 OD450 nm

Binder: 118F3A2 (antibody, V domains shown) VH: QVQLQQWGAGLLKPSETLSLTCGVYGGSFSTNYWSWIRQSPGKGLEWIGEINHSGNTEYNPSLKSRLTISIDTSKNQFSLKLTSVTAADTAVYYCARMGYHSPSFDFWGQGVLVTVSS VL: KIVMTQSPATLSVSPGERATLPCRVSQGIGSNLAWYQQKPGQAPRLLIYGASTRATGVPARFSGSGSGSEFTLTISSLQSEDLALYYCQQYNNWPLTFGGGTKVEIK
Measure: OD450 nm
Result value: 2.26 OD450 nm

Binder: 172E3E3 (antibody, V domains shown) VH: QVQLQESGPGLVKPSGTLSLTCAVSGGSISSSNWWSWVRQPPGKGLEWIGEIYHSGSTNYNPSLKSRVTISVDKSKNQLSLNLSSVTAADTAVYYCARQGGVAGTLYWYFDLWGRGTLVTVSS VL: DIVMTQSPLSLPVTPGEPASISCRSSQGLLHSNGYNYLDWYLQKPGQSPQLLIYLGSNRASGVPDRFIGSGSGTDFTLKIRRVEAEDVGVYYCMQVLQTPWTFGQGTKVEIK
Measure: OD450 nm
Result value: 3.18 OD450 nm

Binder: 119B6G5 (antibody, V domains shown) VH: EVQLLESGGGLVQPGGSLRLSCAASGFTFSNYAMSWVRQGPGKGLEWVSTIIGSGDSTYYTDSVKGRFTISRDNSKNTLFLQMNSLRAEDTAVYYCARDKSGWYYFDYWGQGTLVTVSS VL: DIQMTQSPSTLSASVGDRVTITCRASQSISNWLAWYQQKPGKAPKLLIYKASSLESGVPSRFSGSGSGTEFTLTISSLQPDDFATYYCQQYNDYFPITFGQGTRLEIK
Measure: OD450 nm
Result value: 2.62 OD450 nm

Binder: 52F4G2 (antibody, V domains shown) VH: QVQLQESGPGLVKPSETLSLTCAVSGYSISSGYYWGWIRQPPGKGLEWIGSIFHSGSSYYNPSLKSRVTISVDTSKNQFSLKLRSVTAADTAVYYCARESSGWNCFDYWGQGTLVTVSS VL: DIQMTQSPSTLSASVGDRVTITCRASQTISTWLAWYQQKPGKAPKLLIYKASNLESGVPSRFSGSGSGTEFTLTISSLQPDDFATYYCQQYNSYSITFGQGTRLEIK
Measure: OD450 nm
Result value: 3.08 OD450 nm

Binder: 170D7F2 (antibody, V domains shown) VH: QVQLVQSGAEVKKPGASVKVSCKASGYTFTSYDINWVRQATGQGLEWMGWMNPNSGNTGYAQKFQGRVTMTRNTSISTAYMELSSLRSEDTAVYYCARETGPFDYWGQGTLVTVSS VL: DIQMTQSPSSLSASVGDRVTITCRASQRINNYLNWYQQKPGKAPKLLIYGASSLQSGVPSRFSGSGSGTDFTLTISSLQPEDFATYYCQQSYSTPFTFGPGTKVDIK
Measure: OD450 nm
Result value: 3.24 OD450 nm
